System: T-47D breast
Assay: NCI-60 one-dose screen, 48 h (100 = growth as untreated, 0 = no growth, -100 = all killed)
Details: 10 µM unless noted
This is part of a sample that, as a whole, favours compounds with a hit. Of some 83,000 tested, about 20% had one in any assay. Active and inactive are the calls of the source. The calls were made as follows: active = growth percent below 10; inactive = the rest.
Consider the following compounds; for each one, report its growth.

Please review the following examples before continuing.
compound	growth
O=S(=O)(NCCNc1cc(-c2cn(-c3ccccc3)nc2-c2cccc(O)c2)ccn1)c1ccc(C(F)(F)F)cc1	18.3% (inactive)
COc1cnc2c(c1)C(=O)c1c-2n(CCCN2CCN(CCO)CC2)c(=O)c2cc([N+](=O)[O-])ccc12	64.4% (inactive)
c1cnc2[nH]cc(-c3csc(-c4cn(CCCN5CCCCC5)c5ccccc45)n3)c2c1	63.1% (inactive)
CN(C)c1cccc2[nH]c(-c3[nH]ncc3Nc3ccnc(N)n3)nc12	-18.3% (active)
CC(=O)N1N=C(c2ccc(C)cc2)CC1c1ccc(Oc2ccc(Br)cc2)cc1 (stereo not drawn)	60.6% (inactive)

Required: growth, one value per compound below.
1. C#Cc1cc2c(N)c(C(=O)c3cc(OC)c(OC)c(OC)c3)[nH]c2cc1OC
2. CCCCC[C@H]1C/C=C2/C(=O)C=C[C@@H]2C/C=C\CCCC(=O)O[C@@H](CCCCC)C/C=C2/C(=O)C=C[C@@H]2C/C=C\CCCC(=O)O1
3. Cn1c2ccccc2c2c3c(c4c5cccnc5[nH]c4c21)C(=O)N(O)C3=O
4. CC(C)/C=C/CC[C@](C)(O)[C@H]1CC[C@]2(C)[C@@H]1CC[C@@H]1[C@@]3(C)C/C(=C/c4cccc(C(F)(F)F)c4)C(=O)C(C)(C)[C@@H]3CC[C@]12C
5. COc1cc2ncnc(Nc3ccc(Oc4ccnc(C)c4)c(C)c3)c2cc1NC(=O)CC1CCSS1 (stereo not drawn)

1. 25.7% (inactive)
2. -74.8% (active)
3. 16.4% (inactive)
4. 73.8% (inactive)
5. -66% (active)

Required: growth, one value per compound below.
1. O=C1c2cc3c(cc2-c2c1c1ccc(F)cc1c(=O)n2CCCN1CCOCC1)OCO3
2. COc1ccc(-c2n[nH]nc2-c2cc3ccccc3s2)cc1O
3. O=C1NC(=Nc2ccc(S(=O)(=O)Nc3nccs3)cc2)S/C1=C\c1coc2ccccc2c1=O
4. Nc1ccccc1NC(=O)c1ccc(CN2CCC/C(=C\c3ccccn3)C2=O)cc1

1. 28.4% (inactive)
2. 43.8% (inactive)
3. 97.1% (inactive)
4. 8.73% (active)

Required: growth, one value per compound below.
1. CC1(C)NCCC[C@]2(C)[C@H]3CC[C@@H]4[C@H]5[C@H](C(=O)/C=C/c6ccccn6)CC[C@]5(CO)CC[C@@]4(C)[C@]3(C)CC[C@@H]12
2. Nc1nc(N)c2nc3c(nc2n1)CCCCCCCCCC3
3. c1ccc2c(-c3nc(-c4c[nH]c5ncccc45)cs3)c[nH]c2c1
4. CC(C)C[C@@H](NC(=O)[C@@H](Cc1ccccc1)NC(=O)c1cnccn1)B1O[C@H]2[C@H](O)[C@@H](C(=O)NCCCC[C@@H]3NC(=O)[C@@H](Cc4ccccc4)NC(=O)[C@H](CC(=O)O)NC(=O)CNC(=O)[C@H](CCCN=C(N)N)NC3=O)O[C@@H](CN)[C@H]2O1
5. COc1ccc(-c2cc(/C=C/C(=O)c3ccc(N)cc3)[nH]n2)cc1
6. O=C1C=C(C(O)c2ccc(O)cc2)C(=O)c2ccccc21 (stereo not drawn)
7. CC(=O)NC1=C(C#N)C(c2ccccc2Cl)c2c(ccc3ccccc23)O1 (stereo not drawn)
8. O=C(Nc1ccc(/C=C2\SC(=O)N(Cc3ccc(OC(F)(F)F)cc3)C2=O)cc1)c1ccc(Cl)c([N+](=O)[O-])c1

1: 30.7% (inactive); 2: 82.1% (inactive); 3: 93.8% (inactive); 4: -70.4% (active); 5: 21% (inactive); 6: 80.2% (inactive); 7: 62.5% (inactive); 8: 4.78% (active)

# lookup: growth of `C=C(C)[C@@H]1CC[C@]2(C=O)CC[C@]3(C)[C@H](CC[C@@H]4[C@@]5(C)C/C(=C/c6cccnc6)C(=O)C(C)(C)[C@@H]5CC[C@]43C)[C@@H]12`
31.9% (inactive)

Data provenance is PubChem BioAssay (NCI).
